- Tested on: L1210 leukemia ip in BDF1 mice, survival T/C
- Assay Name: NCI In Vivo Anticancer Drug Screen. Data for tumor model L1210 Leukemia (intraperitoneal) in B6D2F1 (BDF1) mice
- Protocol Conditions: endpoint: mean survival time; dose: 50.0 mg/kg/injection; schedule: Q04DX002 (ip); vehicle: saline with Tween-80; higher = longer survival
Toxic doses and inconclusive results are not listed.
Attribute Measured: T/C

Compound	Target	T/C
CN(C)CCC(C=O)(CCN(C)C)c1cccc2ccccc12	L1210 leukemia ip in BDF1 mice, survival T/C	94 % of control
CN(C)C(=O)N/C=C/NC(=O)N(C)C	L1210 leukemia ip in BDF1 mice, survival T/C	106 % of control
O=C(Nc1ccccc1)OCC(OC(=O)Nc1ccccc1)C(COC(=O)Nc1ccccc1)OC(=O)Nc1ccccc1 (stereo not drawn)	L1210 leukemia ip in BDF1 mice, survival T/C	100 % of control

In: Tell me the measured T/C of CC1CC(C)NC(=O)N1 (stereo not drawn) , please.
Out: 98 % of control

In: Tell me the measured T/C of `O=[N+]([O-])c1ccc(N/N=C/C#Cc2ccccc2)c([N+](=O)[O-])c1` , please.
Out: 88 % of control

In: Tell me the measured T/C of `CCN=C(CCl)NS(=O)(=O)c1ccc(C)cc1` , please.
Out: 109 % of control

In: Tell me the measured T/C of `C(CC1CCCC1)=C(CCC1CCCC1)CCC1CCCC1` , please.
Out: 103 % of control

In: Tell me the measured T/C of `CC(C)(C)C#C/C(=N\Nc1ccc([N+](=O)[O-])cc1[N+](=O)[O-])c1ccccc1` , please.
Out: 89 % of control

###

- System: L1210 leukemia ip in BDF1 mice, survival T/C
- Assay Name: NCI In Vivo Anticancer Drug Screen. Data for tumor model L1210 Leukemia (intraperitoneal) in B6D2F1 (BDF1) mice
- Protocol Conditions: endpoint: mean survival time; dose: 100.0 mg/kg/injection; schedule: Q01DX001 (ip); vehicle: saline; higher = longer survival
- Method: The antitumor activity of compounds was measured in mice bearing transplantable tumors. Survival or tumor size were measured and the results are expressed as the measurement made in the treated group (T) divided by the measurement made in the vehicle treated control group (C). The tumor model used in this assay is L1210 Leukemia (intraperitoneal) in B6D2F1 (BDF1) mice
Inconclusive results and toxic doses are left out.
Attribute Measured: T/C

Compound	T/C
FC(F)C(F)(F)C(F)(F)C(F)(F)C(F)(F)C(F)(F)C(F)(F)F	97 % of control
COC(=O)OCC1OC(OC(C)=O)C2OC(=O)OC12 (configuration not stated)	97 % of control
CC1(C)N=C(N)N=C(N)N1c1cccc(OCc2cccc([N+](=O)[O-])c2)c1	96 % of control
COc1ccc(-c2oc3cc(OC)ccc3c(=O)c2O)cc1	98 % of control
O=[N+]([O-])c1ccc(O)c([N+](=O)[O-])c1	94 % of control
CC1(C)C(C)(C)C12C=CC=C2	101 % of control

In: Tell me the measured T/C of `NCCCC(=O)O` , please.
Out: 99 % of control

In: Tell me the measured T/C of CC1(C)OC2OC(COC(=O)c3ccccc3)C(=O)C2O1 (configuration not stated) , please.
Out: 106 % of control

In: Tell me the measured T/C of `COC(c1ccccc1)(c1ccccc1)N(C)C` , please.
Out: 105 % of control

In: Tell me the measured T/C of `CC(=O)c1cc(-c2ccc(Cl)c(Cl)c2)nc2c(Cl)cc(Cl)cc12` , please.
Out: 104 % of control

In: Tell me the measured T/C of C[C@]12CC[C@H](O)CC1=CC[C@@H]1[C@@H]2CC[C@](C)(C(=O)O)[C@H]1CC1Nc2ccccc2C1=O (some centres not stated) , please.
Out: 95 % of control

In: Tell me the measured T/C of N#Cc1c(N)ncn1C1OC(CO)C(O)C1O (configuration not stated) , please.
Out: 96 % of control
